subject of test: Nav1.5 channel currents (INa, ILATE) in M3q iPS-CMs (Homo sapiens, UniProt Q14524)
Construct: host or cells: human iCell^2 iPS cardiomyocytes (transfected with M3q DREADD in A5; endogenous AT1 receptor in A7)
Sequence (Q14524 whole entry): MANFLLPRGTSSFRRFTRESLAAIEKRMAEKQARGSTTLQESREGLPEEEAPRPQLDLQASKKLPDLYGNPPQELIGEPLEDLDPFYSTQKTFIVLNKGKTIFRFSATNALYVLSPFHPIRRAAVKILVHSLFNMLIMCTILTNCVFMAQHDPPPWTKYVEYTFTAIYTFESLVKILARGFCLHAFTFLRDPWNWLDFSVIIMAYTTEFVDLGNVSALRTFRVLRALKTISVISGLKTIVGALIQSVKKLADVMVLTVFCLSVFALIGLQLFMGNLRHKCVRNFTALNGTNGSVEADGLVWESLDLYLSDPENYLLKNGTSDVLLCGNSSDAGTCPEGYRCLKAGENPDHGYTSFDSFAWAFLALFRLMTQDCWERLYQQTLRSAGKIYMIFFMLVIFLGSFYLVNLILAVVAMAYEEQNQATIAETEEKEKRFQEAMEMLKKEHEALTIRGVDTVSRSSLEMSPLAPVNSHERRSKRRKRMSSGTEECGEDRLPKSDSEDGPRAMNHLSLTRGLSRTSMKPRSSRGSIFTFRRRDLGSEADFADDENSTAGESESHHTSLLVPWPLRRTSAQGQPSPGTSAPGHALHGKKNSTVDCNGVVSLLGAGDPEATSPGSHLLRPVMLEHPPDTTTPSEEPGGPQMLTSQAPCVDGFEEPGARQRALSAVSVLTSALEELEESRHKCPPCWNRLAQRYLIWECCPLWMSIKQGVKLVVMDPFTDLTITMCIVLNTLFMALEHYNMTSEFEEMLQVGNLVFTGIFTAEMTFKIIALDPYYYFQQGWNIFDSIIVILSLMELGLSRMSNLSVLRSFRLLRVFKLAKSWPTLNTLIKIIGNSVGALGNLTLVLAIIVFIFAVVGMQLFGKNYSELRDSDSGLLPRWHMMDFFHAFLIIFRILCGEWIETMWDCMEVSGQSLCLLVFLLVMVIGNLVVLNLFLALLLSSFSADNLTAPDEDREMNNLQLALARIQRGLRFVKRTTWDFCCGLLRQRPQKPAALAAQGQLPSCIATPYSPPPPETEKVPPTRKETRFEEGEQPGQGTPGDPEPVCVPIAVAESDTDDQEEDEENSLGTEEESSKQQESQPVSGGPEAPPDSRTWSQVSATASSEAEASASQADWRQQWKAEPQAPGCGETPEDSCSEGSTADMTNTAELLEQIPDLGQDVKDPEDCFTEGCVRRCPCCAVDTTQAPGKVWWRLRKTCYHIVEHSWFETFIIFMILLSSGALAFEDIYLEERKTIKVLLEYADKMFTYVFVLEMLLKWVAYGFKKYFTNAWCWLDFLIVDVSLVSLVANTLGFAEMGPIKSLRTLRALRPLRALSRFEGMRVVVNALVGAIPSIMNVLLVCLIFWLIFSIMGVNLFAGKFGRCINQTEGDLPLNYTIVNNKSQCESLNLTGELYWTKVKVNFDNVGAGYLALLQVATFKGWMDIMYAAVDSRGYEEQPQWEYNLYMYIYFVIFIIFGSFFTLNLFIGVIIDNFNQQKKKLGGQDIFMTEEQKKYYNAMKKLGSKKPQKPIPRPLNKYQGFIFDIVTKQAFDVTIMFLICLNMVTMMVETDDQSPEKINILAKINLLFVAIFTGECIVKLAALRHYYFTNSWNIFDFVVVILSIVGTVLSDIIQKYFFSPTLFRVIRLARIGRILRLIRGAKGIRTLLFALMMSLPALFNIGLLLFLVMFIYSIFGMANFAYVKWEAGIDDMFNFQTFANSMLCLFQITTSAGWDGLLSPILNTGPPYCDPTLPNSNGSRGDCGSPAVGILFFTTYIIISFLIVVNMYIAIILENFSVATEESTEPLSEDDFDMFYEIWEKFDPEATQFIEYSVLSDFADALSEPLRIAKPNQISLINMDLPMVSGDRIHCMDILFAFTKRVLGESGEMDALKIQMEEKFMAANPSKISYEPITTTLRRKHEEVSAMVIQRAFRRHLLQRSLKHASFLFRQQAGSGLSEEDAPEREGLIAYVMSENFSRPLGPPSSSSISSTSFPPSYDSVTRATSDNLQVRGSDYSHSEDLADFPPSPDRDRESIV
assay info: Whole-cell patch-clamp of INa and ILATE in M3q-DREADD iPS-CMs activated with CNO
Format: cell-based
conditions: 100 nM CNO; 200 μM diC8-PIP2 in pipette
readout name: effect on CNO-evoked leftwards shifts in V½ACT and V½SSI

O=C(O)CN(CC(=O)O)c1ccccc1OCCOc1ccccc1N(CC(=O)O)CC(=O)O
not sensitive
CCCCCCCC(=O)OC[C@H](COP(=O)(O)O[C@@H]1[C@H](O)[C@H](O)[C@@H](OP(=O)(O)O)[C@H](OP(=O)(O)O)[C@H]1O)OC(=O)CCCCCCC
precluded
CN[C@@H]1C[C@H]2O[C@@](C)([C@@H]1OC)n1c3ccccc3c3c4c(c5c6ccccc6n2c5c31)C(=O)NC4
not sensitive
COc1ccc2c(c1)CC[C@@H]1[C@@H]2CC[C@]2(C)[C@@H](NCCCCCCN3C(=O)C=CC3=O)CC[C@@H]12
precluded
